- system under test: T1, human TREM2 truncated stalk peptide (aa 149-163) (human)
- T1 sequence (peptide, biotinylated (site not stated)): SFEDAHVEHSISRSL
- assay text: ELISA on biotinylated peptide captured by streptavidin; A450 normalised to isotype control
result type: fold over background (A450) (fold)
Enter your answer as a number in fold; do not include the unit.

See these solved cases before continuing.
CL0020309 (antibody, V domains shown) VH: QVQLKQSGPSLVQPSQSLSITCTVSGFSLTSYGVQWVRQSPGKGLEWLGVIWTGGTTDFNAAFKSRLSITKDNSKSQVFFKMNSLQADDSAIYYCAKIGFHSAVDYWGQGTSVTVSS VL: DVLMTQTPLSLPVSLGDQASISCRSSQNIVHSNGNTYLEWYLQKPGQSPKLLIYKVSNRFSGVPDRFSGSGSGTDFTLKINRVEAEDLGLYYCFQGSHIPFTFGSGTQLEIK
2.2
CL0020141 (antibody, V domains shown) VH: EVTLVESGGGLVQPGGSLRLSCATSGFTFTDYYMSWVRQPPGKALEWLGFIRDKANGYTTDYSASVKGRFTISRDNSQNILYLQMNTLRAEDSATYYCSRLLRAQGFAYWGQGTLVTVSA VL: DIVMSQSPSSLGVSIGEKVIMSCTSGQSLLYSNNQKNYLAWYQQKPGQSPKLLIYWASTRESGVPDRFTGSGSGTDFTLTINSVKAEDLAVYYCQQYYRNPFTFGSGTKLEIK
2.1

Request: Field request: fold over background (A450) | item: CL0020188 (antibody, V domains shown) VH: EVKLLDSGGGLVQAGGSLRLSCAGSGFTFTDFYMSWIRQPPGKAPEWLGVIRNKANGYTAGYNPSVKGRFTISRDNTQNILYLQMNTLRAEDTAIYYCARLTYGFDYWGQGVMVTVSS VL: DIVMTQGALPNPVPSGESASITCQSSKSLLHSNGKTYLNWYLQRPGQSPQLLIYWMSTRASGVSDRFSGSGSGTDFTLKISSVEAEDVGVYYCQQFLEYPFTFGSGTKLEIK
Response: 3

Request: Field request: fold over background (A450) | item: CL0020308 (antibody, V domains shown) VH: QVQLKQSGPSLVQPSQSLSITCTVSGFSLTTYGIHWVRQSPGKGLEWLGVIWTGGSTAFNAAFMSRLSITKDNSKSQVFFKMNSLQADDTAIYYCAKVGFHSATDYWGQGTSVTVSS VL: DVLMTQTPLSLPVTLGDQASISCRSSQNLVHSNGNTYLEWYLQKPGQSPKLLIYKVSNRFSGVPDRFSGSGSGTDFTLKISRVEAEDLGLYYCFQGSHVPFTFGSGTKLEIK
Response: 2.5

Attribution: patent US20220119522A1
